TGT: Ubiquitin carboxyl-terminal hydrolase 30 (Homo sapiens)
MEASUREMENT NOTES: inhibitors of human USP30 deubiquitinase (AID 1645860)
PROTOCOL CONDITIONS: purified USP30, Ub-rhodamine cleavage fluorescence; at 25 µM; hits give high values
In all, about 47,000 compounds went through this assay and about 2,500 (5.3%) were called active. This is one part of a sample in which actives are shown more often than they occur.
MEASURED ATTRIBUTE: inhibition (%)
Numbers only; they are read as %.

CC(OC(=O)c1cn(-c2ccccc2)nc1-c1cccnc1)C(=O)Nc1cccc(S(=O)(=O)N(C)C)c1 (stereo not given)
55.1
Cc1ccc(CC(=O)N2CCN(C(=O)c3cc(-c4ccccn4)n[nH]3)CC2)cc1
4.03
COc1cc(Cl)c(NC(=O)c2cc(-c3ccccn3)n[nH]2)c(OC)c1
31.5

Noted for CN(C(=O)CSCc1nc(-c2ccc(F)cc2)no1)c1ccc(F)cc1 : its inhibition reads -1.42

Noted for CC(C)[C@H](NC(=O)N1CCn2c1nc1ccccc12)C(=O)NCCc1ccccc1 : its inhibition reads -9.82

Noted for CCS(=O)(=O)N1CCc2c(nc(C3CCCN3)nc2NC)C1 (stereo not given) : its inhibition reads -56.6

Noted for O=C(Nc1ccc(Cl)cc1F)c1cc(-c2ccccn2)n[nH]1 : its inhibition reads 12.6

Noted for O=C(O)C1(Cc2nc3ccccc3s2)CCCCC1 : its inhibition reads 11.5

Noted for COc1ccccc1OCCC(=O)Nc1cccc(S(=O)(=O)N(C)C)c1 : its inhibition reads 11.1

Noted for CCOc1ncccc1C(=O)NNC(=O)c1cn(-c2ccccc2)nc1-c1ccccc1 : its inhibition reads -0.192

* * *

TGT: Ubiquitin carboxyl-terminal hydrolase 30 (Homo sapiens)
MEASUREMENT NOTES: inhibitors of human USP30 deubiquitinase (AID 1645860)
PROTOCOL CONDITIONS: purified USP30, Ub-rhodamine cleavage fluorescence; at 25 µM; hits give high values
About 2,500 (5.3%) of roughly 47,000 compounds were called active. Shown is part of a subset that was picked to be rich in actives.
MEASURED ATTRIBUTE: inhibition (%)
Numbers only; they are read as %.

CC(=O)c1cccc(Nc2c(C(=O)N3CCCC3)cnc3nc(C)ccc23)c1
-35.8
COc1cc(C(=O)Nc2ccc(-c3nc4cnccc4o3)cc2)cc(OC)c1OC
14.2
COCC(=O)N1CCCCCC1C1CCN(c2nn3cc(C)nc3s2)CC1 (configuration not stated)
16.4
Clc1cc2nc(N3CCN(c4ccccn4)CC3)c3nncn3c2cc1Cl
36.4
COc1ccc(CC(=O)Nc2cnc(-c3ccccc3)nc2)cc1
-102
CC(C)(C)OC(=O)N1CCC2(CC1)NC(=O)C1(CCCCC1)N2
16.4
CSc1nccc(-c2ccc(F)cc2)c1C#N
30.3
O=C(Nc1cnc(N2CCCC2)nc1)c1ccco1
-2.69

Now consider the entry below.
Noted for COc1ccc(OCC(=O)Nc2noc(-c3ccccc3)n2)cc1 : its inhibition reads 24.4

* * *

TGT: Ubiquitin carboxyl-terminal hydrolase 30 (Homo sapiens) (UniProt Q70CQ3)
Sequence (Q70CQ3 whole entry, looked up): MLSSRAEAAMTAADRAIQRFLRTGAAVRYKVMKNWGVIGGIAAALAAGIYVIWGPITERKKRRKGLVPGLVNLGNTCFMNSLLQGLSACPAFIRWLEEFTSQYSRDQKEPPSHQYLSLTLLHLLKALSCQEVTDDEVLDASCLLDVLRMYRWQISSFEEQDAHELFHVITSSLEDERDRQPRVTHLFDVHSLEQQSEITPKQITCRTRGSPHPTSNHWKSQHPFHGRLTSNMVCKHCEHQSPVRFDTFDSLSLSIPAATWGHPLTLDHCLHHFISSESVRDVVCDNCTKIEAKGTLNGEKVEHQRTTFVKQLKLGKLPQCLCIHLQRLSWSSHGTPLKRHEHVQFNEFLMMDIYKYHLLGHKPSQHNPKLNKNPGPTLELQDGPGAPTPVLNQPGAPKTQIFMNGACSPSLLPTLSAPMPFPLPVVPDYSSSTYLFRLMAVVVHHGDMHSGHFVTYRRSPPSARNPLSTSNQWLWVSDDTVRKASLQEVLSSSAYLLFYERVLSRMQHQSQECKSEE
MEASUREMENT NOTES: inhibitors of human USP30 deubiquitinase (AID 1645860)
PROTOCOL CONDITIONS: purified USP30, Ub-rhodamine cleavage fluorescence; at 25 µM
Out of some 47,000 compounds screened, about 2,500 (5.3%) were called active. Rule as the data show it: active = inhibition above about 30%; inactive = the rest. The list comes from a sample in which actives are over-represented; it also holds close analogues and randomly drawn compounds.
Your reply should match one of these outcome classes. active, inactive

O=C(NCCc1ccccc1)c1cc2c(s1)CS(=O)(=O)C2
inactive
Cc1cc(C(=O)CSc2nnc(-c3ccc(F)cc3)n2C)c(C)n1C
inactive
O=C(Cc1ccccc1)N1CCc2[nH]nc(-c3ccc(F)cc3)c2C1
inactive
Cn1cc(CCNC(=O)Nc2cc(F)ccc2F)c2cccnc21
inactive

State the result this test recorded for CSc1cccc(NC(=O)COc2ccc(C(=O)c3ccccc3)cc2)c1 .
inactive

State the result this test recorded for O=C(NCc1ccc2c(c1)OCO2)c1cc2c(s1)CS(=O)(=O)C2 .
active

State the result this test recorded for O=C(NC1CCCCC1)c1ccc2c(=O)nc3c(-c4ccccc4F)n[nH]n3c2c1 .
inactive

* * *

TGT: Ubiquitin carboxyl-terminal hydrolase 30 (Homo sapiens) (UniProt Q70CQ3)
MEASUREMENT NOTES: inhibitors of human USP30 deubiquitinase (AID 1645860)
PROTOCOL CONDITIONS: purified USP30, Ub-rhodamine cleavage fluorescence; at 25 µM
About 2,500 (5.3%) of roughly 47,000 compounds were called active. Cut-off read from the data, not from the text of the source: active = inhibition above about 30%; inactive = the rest. What follows is part of a selection rich in actives, with near analogues and random picks from the rest.
Your reply should match one of these outcome classes. active, inactive

Field: example entries. Status: answers known.
CCc1ccccc1N1C(=O)CN(S(C)(=O)=O)CC1(C)C(=O)NC1CCCCC1 (configuration not stated)
inactive
Cc1cccc(NC(=O)c2cccn2Cc2noc(C3CC3)n2)n1
inactive
Cc1ccc(N2CCn3c(nc4ccccc43)C2)cc1NS(C)(=O)=O
inactive
COc1cccc(NC(=O)CSc2nc(-c3ccco3)nc3cc(=O)[nH]n23)c1
inactive
COc1cc(NS(=O)(=O)c2ccc3c(c2)N(C)CCO3)cc(OC)c1
inactive
N#Cc1ccc(OC(=O)c2cc(S(=O)(=O)N3CCOCC3)c(Cl)cc2Cl)cc1
inactive
CCOc1nc(-c2ccc(Cl)cc2Cl)nc2ccccc12
inactive
COc1ccc(CCNC(=O)Cn2c(=O)n(CC3CCC(C(=O)NC4CCCC4)CC3)c(=O)c3ccccc32)cc1OC (configuration not stated)
inactive
Cc1cnc(N2CCC3(CC(=O)N(c4cccnc4)C3)C2)nc1 (configuration not stated)
inactive
COc1ccc(CCNCc2c(C(=O)O)n(Cc3ccc(Cl)cc3)c3ccccc23)c(OC)c1OC
inactive

State the result this test recorded for Cc1ccc(C(=O)Nc2nccnc2C(=O)NCc2ccc3c(c2)OCO3)cc1 .
inactive

State the result this test recorded for CC(C)=CCc1cc(O)ccc1O .
inactive

State the result this test recorded for CSc1ccccc1NC(=O)c1ccc(N2CCCC2)nn1 .
active

State the result this test recorded for COc1cccc(Nc2nc(N3CCCCC3)nc3c2cnn3C)c1 .
inactive

State the result this test recorded for Cc1cccc(-c2nnc(-c3cccc(S(=O)(=O)N4CCCC4)c3)o2)c1 .
inactive

* * *

TGT: Ubiquitin carboxyl-terminal hydrolase 30 (Homo sapiens)
MEASUREMENT NOTES: inhibitors of human USP30 deubiquitinase (AID 1645860)
PROTOCOL CONDITIONS: purified USP30, Ub-rhodamine cleavage fluorescence; at 25 µM; hits give high values
Screen size: about 47,000 compounds; about 2,500 (5.3%) were called active. The sample as a whole holds a higher share of actives than the screen did.
MEASURED ATTRIBUTE: inhibition (%)
Numbers only; they are read as %.

These solved cases illustrate the format of a correct answer.
COc1ccc2[nH]c3c(c2c1)CCN1C(=O)N([C@@H](C)C(=O)NCC(=O)O)C(=O)[C@]31C
-8.05
Cn1c(=O)c2c(ncn2CC(=O)OCc2cccc([N+](=O)[O-])c2)n(C)c1=O
13.8
Cc1ccc(Nc2nc(O)c(CC(=O)Nc3ccc(C(C)C)cc3)s2)cc1C
0.202
O=C([C@H]1CCCO1)N1C[C@H](OCc2cccnc2)[C@H]2COC[C@H]21
2.01

Noted for CCN(CC)S(=O)(=O)c1ccc(C(=O)Nc2sc(C)c(C)c2C(N)=O)cc1 : its inhibition reads 36.2

Noted for Cc1noc(-c2cccn2Cc2ccc(F)cc2)n1 : its inhibition reads -50.7

Noted for COc1ccc(CNC(=O)c2ccccc2N2C(=O)N3CCc4c([nH]c5ccccc45)[C@@]3(C)C2=O)cc1 : its inhibition reads 41.7

Noted for Cc1ccc(S(=O)(=O)CC(=O)Nc2sc(C)c(C)c2C(N)=O)cc1 : its inhibition reads -97.7

Noted for Cc1cnc(NC(=O)Cn2cnc3c2c(=O)n(C)c(=O)n3C)s1 : its inhibition reads 30.8

Noted for O=C(Nc1ccc(Cl)cc1)C1C2C=CC3(O2)C1C(=O)N(CCc1ccccc1Cl)C3C(=O)NC1CCCCC1 (stereo not given) : its inhibition reads 29.8

Noted for CN1CCN(C(=O)C2=NOC3(CCCNC3)C2)C(c2ccccc2)C1 (stereo not given) : its inhibition reads -3.49

Noted for CCC(=O)c1ccc(OCC(=O)Nc2ccc3nc(C)sc3c2)cc1 : its inhibition reads -168

Noted for Cc1sc(NC(=O)c2ccc(S(=O)(=O)N(C)CC3CCCO3)cc2)c(C(N)=O)c1C (stereo not given) : its inhibition reads -70.8

Noted for Cc1ccc(Cn2cc(-c3noc(-c4ccc[nH]4)n3)nn2)cc1 : its inhibition reads 65

Noted for Cc1ccc(NC(=O)CCn2cnc3c2c(=O)n(C)c(=O)n3C)cc1 : its inhibition reads 1.79

Noted for CN(C)c1ccc(CNC(=O)c2cc(CN3CCOCC3)on2)cc1 : its inhibition reads 22

Noted for Cc1ccc(Nc2nc(NCC(=O)Nc3cc(C)ccc3C)nc(Nc3ccc(C)cc3)n2)cc1 : its inhibition reads -44

Noted for Cc1ccc(CS(=O)(=O)N2CCC(C(=O)N3CCC(C)CC3)CC2)cc1 : its inhibition reads 9.43

Noted for CCOc1ccc(N(CC(=O)Nc2ccc(S(=O)(=O)Nc3cc(C)ccc3C)cc2)S(C)(=O)=O)cc1 : its inhibition reads 1.87

Noted for Cc1ccc(NC(=O)Cc2sc(Nc3ccc(C)cc3)nc2O)cc1 : its inhibition reads 53.6

Entry source: PubChem BioAssay AID1645860
